System: ragweed (common ragweed, Ambrosia elatior)
Assay: Test A postemergence, ragweed
Format: in vivo
Conditions: 500 g ai/ha, 0 to 100 scale
Recorded measurements of Plant response rating, Ragweed, one per entry
Write the number on its own, no unit after it.

Some entries whose results are on file:
CC(COc1cc(F)c(F)c(F)c1)Nc1ncc(C(F)(F)F)c(N)n1 (stereo not drawn) [Compound 36]
0
CC[C@H](COc1cc(C)cc(C)c1)Nc1ncc(C(F)(F)F)c(N)n1 [Compound 27]
90
CC(CCc1ccccc1)Nc1ncc(C(F)(F)F)c(N)n1 (stereo not drawn) [Compound 23]
0
CC(Nc1ncc(C(F)(F)F)c(N)n1)c1cc2ccccc2s1 (racemic) [Compound 16]
80

The compound C[C@@H](Nc1ncc(C(F)(F)F)c(N)n1)c1cc2ccc(C(F)(F)F)cc2o1 [Compound 15] showed Plant response rating, Ragweed equal to 40

The compound C[C@@H](Nc1ncc(C(F)(F)F)c(N)n1)c1cccc2ccccc12 [Compound 3] showed Plant response rating, Ragweed equal to 90
